B1: Nuclear receptor subfamily 1 group D member 2, residues 103 to 171; numbered along this chain, Q14995 (parent)
chain: CKVCGDVASGFHYGVHACEGCKGFFRRSIQQNIQYKKCLKNENCSIMRMNRNRCQQCRFKKCLSVGMSR

- Variants of: B1
- ASSAY_DETAILS: abundance fitness (aPCA) (normalised: wild type 0, dead -1); higher = more abundant; growth selection in yeast, the domain comes from the species named
- SETTINGS: Homo sapiens
# class assignment by measured abundance fitness: bottom bin (below -0.5), middle bin (-0.5 to below -0.1), top bin (-0.1 or more)

- BIOSEQUENCE: "CKVCGDVASGFHYGVHACEGCKGFFRRSIQQNIQYKKCLKNENCSIMRMNRNRCQQCRFKKPLSVGMSR [C62P]"
  CLASS_LABEL: "bottom bin"
- BIOSEQUENCE: "CKVCGDVASGFHYGVHACEGCKGFFRRSIQQNIQYKKCLKAENCSIMRMNRNRCQQCRFKKCLSVGMSR [N41A]"
  CLASS_LABEL: "middle bin"
- BIOSEQUENCE: "CKVCGDVASGFHYGVHACEGCKGFFRRSIQQNIQYKKCLKNQNCSIMRMNRNRCQQCRFKKCLSVGMSR [E42Q]"
  CLASS_LABEL: "middle bin"
- BIOSEQUENCE: "CKVCGDVASGFHYGVHACEGCKGFFRRSIQQLIQYKKCLKNENCSIMRMNRNRCQQCRFKKCLSVGMSR [N32L]"
  CLASS_LABEL: "bottom bin"
- BIOSEQUENCE: "CKVCGDVASGFHYGVHACEGCKGFFRRSIQQNIQYKKCLKNENCSIMRMNQNRCQQCRFKKCLSVGMSR [R51Q]"
  CLASS_LABEL: "top bin"
- BIOSEQUENCE: "CKVCGDVASGFHYGVHACEGCKGFFRRSIQQNIQYKKCLKQENCSIMRMNRNRCQQCRFKKCLSVGMSR [N41Q]"
  CLASS_LABEL: "middle bin"
- BIOSEQUENCE: "CKVCGDVASGFHYGVHACEGCKGFFRRSIQQNIQYKKCLKNENCSIMRMNRNRCQQCRFKKCESVGMSR [L63E]"
  CLASS_LABEL: "middle bin"
- BIOSEQUENCE: "CKVCGDVASGFHYGVHACEGCKGFFRRSIQQNIQYKKCLKNENCSIRRMNRNRCQQCRFKKCLSVGMSR [M47R]"
  CLASS_LABEL: "top bin"
- BIOSEQUENCE: "CKVCGDVASGFHYGVHACEGCKGFFRRSIQQNIQYKKCLKNENCKIMRMNRNRCQQCRFKKCLSVGMSR [S45K]"
  CLASS_LABEL: "bottom bin"
- BIOSEQUENCE: "CKVCGDVASGFHYGVHACEGCKGFFRRSIQDNIQYKKCLKNENCSIMRMNRNRCQQCRFKKCLSVGMSR [Q31D]"
  CLASS_LABEL: "middle bin"
- BIOSEQUENCE: "CKVCGDVASGFHYGVHACEGCKGFFRRSIQQNIQYKKCLKNENCSIMRMNRNTCQQCRFKKCLSVGMSR [R53T]"
  CLASS_LABEL: "top bin"
- BIOSEQUENCE: "CKVCGDVASGFHYGVHACEGCKGFFRRSIIQNIQYKKCLKNENCSIMRMNRNRCQQCRFKKCLSVGMSR [Q30I]"
  CLASS_LABEL: "bottom bin"
- BIOSEQUENCE: "CKVCGDVASGFHYGVHACEGCKGFFRRSIQQNIQYKKCLKNENCSIMRGNRNRCQQCRFKKCLSVGMSR [M49G]"
  CLASS_LABEL: "top bin"
- BIOSEQUENCE: "CKVCGDVASGFHYGVHACEGCKGFFRRSIQQNIQYKKCLKNENCSIMRMNRNRCQQCRFKKCLSWGMSR [V65W]"
  CLASS_LABEL: "bottom bin"
- BIOSEQUENCE: "CKVCGDVASGFHYGVHACEGCKGFFRRSIQQNIQYKKCLKNENCSIMRMNRNQCQQCRFKKCLSVGMSR [R53Q]"
  CLASS_LABEL: "top bin"
- BIOSEQUENCE: "CKVCGDVASGFHYGVHACEGCKGFFRRSIQQNIQYKKCLKNENCGIMRMNRNRCQQCRFKKCLSVGMSR [S45G]"
  CLASS_LABEL: "middle bin"
- BIOSEQUENCE: "CKVCGDVASGFHYGVHACEGCKGFFRRSIQQNIQYKKCLKNENCSIMRMNRNRCQQCCFKKCLSVGMSR [R58C]"
  CLASS_LABEL: "top bin"
- BIOSEQUENCE: "CKVCGDVASGFHYGVHACEGCKGFFRRSIQQNIQYKKCLKNFNCSIMRMNRNRCQQCRFKKCLSVGMSR [E42F]"
  CLASS_LABEL: "bottom bin"
- BIOSEQUENCE: "CKVCGDVASGFHYGVHACEGCKGFFRRSIQQNIQYKKCLKNENCSIMRMNRNRCQQCRFKKCLIVGMSR [S64I]"
  CLASS_LABEL: "bottom bin"
- BIOSEQUENCE: "CKVCGDVASGFHYGVHACEGCKGFFRRSIQQNIQYKKCLKNENCSIMRMNRNRCQQCRFKKCLSDGMSR [V65D]"
  CLASS_LABEL: "bottom bin"
- BIOSEQUENCE: "CKVCGDVASGFHYGVHACEGCKGFFRRSIQQNIQYKKCLKNENCSIMRMNRNRCQQCRFKKCLSLGMSR [V65L]"
  CLASS_LABEL: "bottom bin"
- BIOSEQUENCE: "CKVCGDVASGFHYGVHACEGCKGFFRRSIQQNIQYKKCLKNENCSIMRMNRNRCQQCRFKKCLSVGMSS [R69S]"
  CLASS_LABEL: "top bin"
- BIOSEQUENCE: "CKVCGDVASGFHYGVHACEGCKGFFRRSIQQRIQYKKCLKNENCSIMRMNRNRCQQCRFKKCLSVGMSR [N32R]"
  CLASS_LABEL: "middle bin"
- BIOSEQUENCE: "CKVCGDVASGFHYGVHACEGCKGFFRRSIQQNIQYKKCLKNENCSQMRMNRNRCQQCRFKKCLSVGMSR [I46Q]"
  CLASS_LABEL: "middle bin"
- BIOSEQUENCE: "CKVCGDVASGFHYGVHACEGCKGFFRRSLQQNIQYKKCLKNENCSIMRMNRNRCQQCRFKKCLSVGMSR [I29L]"
  CLASS_LABEL: "middle bin"
- BIOSEQUENCE: "CKVCGDVASGFHYGVHACEGCKGFFRRSIQQNIQYKKCLKNENCSIMRMNRNRCQDCRFKKCLSVGMSR [Q56D]"
  CLASS_LABEL: "top bin"
- BIOSEQUENCE: "CKVCGDVASGFHYGVHACEGCKGFFRRSIQQNIQYKKCLKNGNCSIMRMNRNRCQQCRFKKCLSVGMSR [E42G]"
  CLASS_LABEL: "top bin"
- BIOSEQUENCE: "CKVCGDVASGFHYGVHACEGCKGFFRRSMQQNIQYKKCLKNENCSIMRMNRNRCQQCRFKKCLSVGMSR [I29M]"
  CLASS_LABEL: "middle bin"
- BIOSEQUENCE: "CKVCGDVASGFHYGVHACEGCKGFFRRSIQQNIQYKKCLKNENCSIMRMNRNRCRQCRFKKCLSVGMSR [Q55R]"
  CLASS_LABEL: "middle bin"
- BIOSEQUENCE: "CKVCGDVASGFHYGVHACEGCKGFFRRSIQQNIQYKKCLKNENCSIMRMNRNRCQQCRFKMCLSVGMSR [K61M]"
  CLASS_LABEL: "bottom bin"
- BIOSEQUENCE: "CKVCGDVASGFHYGVHACEGCKGFFRRSIMQNIQYKKCLKNENCSIMRMNRNRCQQCRFKKCLSVGMSR [Q30M]"
  CLASS_LABEL: "bottom bin"
- BIOSEQUENCE: "CKVCGDVASGFHYGVHACEGCKGFFRRSIQQNIQYKMCLKNENCSIMRMNRNRCQQCRFKKCLSVGMSR [K37M]"
  CLASS_LABEL: "top bin"
- BIOSEQUENCE: "CKVCGDVASGFHYGVHACEGCKGFFRRSIQQNIQYKKCKKNENCSIMRMNRNRCQQCRFKKCLSVGMSR [L39K]"
  CLASS_LABEL: "middle bin"
- BIOSEQUENCE: "CKVCGDVASGFHYGVHACEGCKGFFRRSIQQNIQYKKFLKNENCSIMRMNRNRCQQCRFKKCLSVGMSR [C38F]"
  CLASS_LABEL: "bottom bin"
- BIOSEQUENCE: "CKVCGDVASGFHYGVHACEGCKGFFRRSIQQNIQYKKCLKNENCSIMRMNRNRCQQCRFKKRLSVGMSR [C62R]"
  CLASS_LABEL: "bottom bin"
- BIOSEQUENCE: "CKVCGDVASGFHYGVHACEGCKGFFRRSIQQNIQYKKCLKNENCSSMRMNRNRCQQCRFKKCLSVGMSR [I46S]"
  CLASS_LABEL: "middle bin"
- BIOSEQUENCE: "CKVCGDVASGFHYGVHACEGCKGFFRRSIQQNIQYKKCLKNENCSIMRMNRNRCQQCRFKKCLSVGHSR [M67H]"
  CLASS_LABEL: "bottom bin"
- BIOSEQUENCE: "CKVCGDVASGFHYGVHACEGCKGFFRRSIQQNIQYKKCLKNENCSIMRNNRNRCQQCRFKKCLSVGMSR [M49N]"
  CLASS_LABEL: "top bin"
- BIOSEQUENCE: "CKVCGDVASGFHYGVHACEGCKGFFRRSIQQNIQYKKCLKNENCSIMRMNRNRCQQCRFKKCLSVGMKR [S68K]"
  CLASS_LABEL: "top bin"
- BIOSEQUENCE: "CKVCGDVASGFHYGVHACEGCKGFFRRSIQQNIQYKKCLKNENCSIMRMNRNRCQQCRFKCCLSVGMSR [K61C]"
  CLASS_LABEL: "bottom bin"
- BIOSEQUENCE: "CKVCGDVASGFHYGVHACEGCKGFFRRSIQQNIQYKKCLKNENCSIMRMNRNRCQQCRFKKCLLVGMSR [S64L]"
  CLASS_LABEL: "top bin"
- BIOSEQUENCE: "CKVCGDVASGFHYGVHACEGCKGFFRRSIQQNIQYKKCLKNENCSIMRENRNRCQQCRFKKCLSVGMSR [M49E]"
  CLASS_LABEL: "top bin"
- BIOSEQUENCE: "CKVCGDVASGFHYGVHACEGCKGFFRRSIQQNIQYKHCLKNENCSIMRMNRNRCQQCRFKKCLSVGMSR [K37H]"
  CLASS_LABEL: "middle bin"
